Assay Target: T1, C. asparagiforme peptide on HLA-A*02:01 (human)
T1 peptide: RQFGPDFPTI
Measurement Protocol: data from [20]; method not given; soluble, other
Measured Endpoint: pKd
Keep in mind that pKd stands for -log10 of concentration in molar terms.

Which pKd is listed for 1E6 (TCR) alpha TRAV12-3*01 CDR3: AMRGDSSYKLI beta TRBV12-4*01 CDR3: ASSLWEKLAKNIQY ?
6.30
